- system: human TAS2R4 (Homo sapiens, UniProt Q9NYW5)
- Construct: expressed in transfected cells; host or cells: HEK293T-Gα16gust44
- Sequence (Q9NYW5 whole entry): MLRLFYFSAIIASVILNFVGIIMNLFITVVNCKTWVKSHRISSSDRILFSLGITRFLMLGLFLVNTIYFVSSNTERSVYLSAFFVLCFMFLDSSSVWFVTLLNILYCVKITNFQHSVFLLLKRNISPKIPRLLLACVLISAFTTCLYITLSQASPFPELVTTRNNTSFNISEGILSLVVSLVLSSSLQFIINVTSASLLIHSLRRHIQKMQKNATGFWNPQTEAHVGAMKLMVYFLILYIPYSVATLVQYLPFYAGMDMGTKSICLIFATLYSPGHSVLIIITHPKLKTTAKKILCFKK
- assay-procedure: Calcium imaging assay (FLIPR), HEK293T-Gα16gust44 cells transfected with human TAS2R4; further: test concentration or dose not given here
- Assay type: cell-based
- experimental-context: Time (s) 80.781 (TCA, TLCA: 80.782)
Output criterion met for RLU, fluorescence trace not less than 400 RLU; output criterion not met otherwise.

// known answers, use as guide
[[record]]
cpd_smiles = "C[C@H](CCC(=O)O)[C@H]1CC[C@H]2[C@@H]3[C@@H](O)C[C@@H]4C[C@H](O)CC[C@]4(C)[C@H]3CC[C@]12C"
assigned_category = "criterion not met"

[[record]]
cpd_smiles = "C[C@H](CCC(=O)O)[C@H]1CC[C@H]2[C@@H]3CC[C@@H]4C[C@H](O)CC[C@]4(C)[C@H]3C[C@H](O)[C@]12C"
assigned_category = "criterion not met"

[[record]]
cpd_smiles = "C[C@H](CCC(=O)NCC(=O)O)[C@H]1CC[C@H]2[C@@H]3[C@H](O)C[C@@H]4C[C@H](O)CC[C@]4(C)[C@H]3C[C@H](O)[C@]12C"
assigned_category = "criterion met"

[[record]]
cpd_smiles = "C[C@H](CCC(=O)NCCS(=O)(=O)O)[C@H]1CC[C@H]2[C@@H]3CC[C@@H]4C[C@H](O)CC[C@]4(C)[C@H]3CC[C@]12C"
assigned_category = "criterion not met"

[[record]]
cpd_smiles = "C[C@H](CCC(=O)O)[C@H]1CC[C@H]2[C@@H]3[C@H](O)C[C@@H]4C[C@H](O)CC[C@]4(C)[C@H]3C[C@H](O)[C@]12C"
assigned_category = "criterion met"


Lab note: next compound to report on.
Decide: is the reported value of RLU, fluorescence trace for C[C@H](CCC(=O)NCCS(=O)(=O)O)[C@H]1CC[C@H]2[C@@H]3[C@H](O)C[C@@H]4C[C@H](O)CC[C@]4(C)[C@H]3C[C@H](O)[C@]12C equal to or greater than 400 RLU?
criterion met

----------
- system: human TAS2R14 (Homo sapiens, UniProt Q9NYV8)
- Construct: expressed in transfected cells; host or cells: HEK293T-Gα16gust44
- Sequence (Q9NYV8 whole entry): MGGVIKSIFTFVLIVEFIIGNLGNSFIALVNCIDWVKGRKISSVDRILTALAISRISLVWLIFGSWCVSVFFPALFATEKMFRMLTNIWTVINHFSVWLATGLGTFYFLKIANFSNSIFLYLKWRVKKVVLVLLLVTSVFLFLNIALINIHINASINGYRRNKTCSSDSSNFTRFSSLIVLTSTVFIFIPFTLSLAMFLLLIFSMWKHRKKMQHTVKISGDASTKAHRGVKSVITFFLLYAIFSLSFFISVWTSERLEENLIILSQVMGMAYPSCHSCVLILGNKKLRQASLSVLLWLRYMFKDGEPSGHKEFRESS
- assay-procedure: Calcium imaging assay (FLIPR), HEK293T-Gα16gust44 cells transfected with human TAS2R14
- Type: cell-based
- experimental-context: TAS2R14 trace; Time (s) 161.578 (Taurocholic Acid 161.563, Chenodeoxycholic Acid 161.546)
measured-property: RLU (RLU)
Dear colleague, please return just the value in RLU, with no unit written.

Field: example entries. Status: answers known.
[[record]]
cpd_smiles = "C[C@H](CCC(=O)NCC(=O)O)[C@H]1CC[C@H]2[C@@H]3[C@H](O)C[C@@H]4C[C@H](O)CC[C@]4(C)[C@H]3C[C@H](O)[C@]12C"
result_units = "RLU"
value_reported = 810.447

[[record]]
cpd_smiles = "C[C@H](CCC(=O)O)[C@H]1CC[C@H]2[C@@H]3[C@H](O)C[C@@H]4C[C@H](O)CC[C@]4(C)[C@H]3CC[C@]12C"
result_units = "RLU"
value_reported = 359.379


Give RLU for C[C@H](CCC(=O)NCCS(=O)(=O)O)[C@H]1CC[C@H]2[C@@H]3CC[C@@H]4C[C@H](O)CC[C@]4(C)[C@H]3CC[C@]12C
390.532

Give RLU for C[C@H](CCC(=O)NCCS(=O)(=O)O)[C@H]1CC[C@H]2[C@@H]3[C@H](O)C[C@@H]4C[C@H](O)CC[C@]4(C)[C@H]3C[C@H](O)[C@]12C
958.674

Give RLU for C[C@H](CCC(=O)O)[C@H]1CC[C@H]2[C@@H]3[C@H](O)C[C@@H]4C[C@H](O)CC[C@]4(C)[C@H]3C[C@H](O)[C@]12C
1154.38
